For each of the compounds below, state its pIC50.
TESTED_ON: FLAG-KDM5B (Homo sapiens)
Construct: Full-length FLAG-KDM5B, FLAG-KDM5C, and His-FLAG-KDM6A production was detailed previously; FLAG (N)
Sequence (Q9UGL1 whole entry): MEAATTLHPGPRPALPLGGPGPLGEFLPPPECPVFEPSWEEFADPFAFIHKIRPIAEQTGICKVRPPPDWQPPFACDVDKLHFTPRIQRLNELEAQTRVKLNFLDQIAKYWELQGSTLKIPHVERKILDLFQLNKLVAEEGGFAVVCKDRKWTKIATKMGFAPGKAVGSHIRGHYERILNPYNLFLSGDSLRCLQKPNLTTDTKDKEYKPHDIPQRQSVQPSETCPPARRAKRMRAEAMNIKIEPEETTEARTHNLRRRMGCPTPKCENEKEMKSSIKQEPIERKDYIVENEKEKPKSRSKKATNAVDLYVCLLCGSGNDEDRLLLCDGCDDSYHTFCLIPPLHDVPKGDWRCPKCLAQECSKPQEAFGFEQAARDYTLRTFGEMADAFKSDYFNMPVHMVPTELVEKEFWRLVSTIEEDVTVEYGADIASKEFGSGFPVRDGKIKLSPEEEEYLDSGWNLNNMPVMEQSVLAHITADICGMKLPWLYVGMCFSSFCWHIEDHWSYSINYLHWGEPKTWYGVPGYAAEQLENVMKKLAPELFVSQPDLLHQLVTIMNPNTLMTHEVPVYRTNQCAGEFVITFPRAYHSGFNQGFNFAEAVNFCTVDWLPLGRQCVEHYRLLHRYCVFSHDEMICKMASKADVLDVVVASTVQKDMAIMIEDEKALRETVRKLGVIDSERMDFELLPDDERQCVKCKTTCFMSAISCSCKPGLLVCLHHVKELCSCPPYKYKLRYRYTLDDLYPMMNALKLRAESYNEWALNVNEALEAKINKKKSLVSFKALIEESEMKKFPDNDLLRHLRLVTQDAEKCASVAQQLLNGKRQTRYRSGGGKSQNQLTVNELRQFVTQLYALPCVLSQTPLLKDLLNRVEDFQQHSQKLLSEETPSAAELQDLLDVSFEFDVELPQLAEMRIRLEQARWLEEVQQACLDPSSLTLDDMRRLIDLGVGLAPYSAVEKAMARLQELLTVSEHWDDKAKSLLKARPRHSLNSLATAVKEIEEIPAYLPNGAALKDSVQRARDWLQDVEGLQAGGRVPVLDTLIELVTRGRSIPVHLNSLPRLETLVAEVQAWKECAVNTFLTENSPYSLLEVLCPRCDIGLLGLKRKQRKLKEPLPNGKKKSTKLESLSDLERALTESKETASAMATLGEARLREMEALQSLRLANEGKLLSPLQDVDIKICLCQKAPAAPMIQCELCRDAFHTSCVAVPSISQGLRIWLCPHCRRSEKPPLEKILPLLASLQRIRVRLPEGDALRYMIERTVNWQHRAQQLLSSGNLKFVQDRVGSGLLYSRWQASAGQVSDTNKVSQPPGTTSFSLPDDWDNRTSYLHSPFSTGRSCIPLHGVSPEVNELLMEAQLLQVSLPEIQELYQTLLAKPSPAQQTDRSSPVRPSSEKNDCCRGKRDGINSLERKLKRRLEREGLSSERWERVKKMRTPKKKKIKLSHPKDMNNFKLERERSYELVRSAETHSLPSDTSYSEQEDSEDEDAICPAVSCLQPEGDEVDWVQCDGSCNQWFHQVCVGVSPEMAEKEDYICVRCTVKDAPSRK
METHOD: AlphaScreen KDM5B demethylation assay
TEST_PARAMETERS: AlphaScreen
pIC50: −log10 of the molar value.

C=CCn1c(S)nnc1CNC(=O)c1cccc(C)c1
< 4.30

Query: Given `C=CCOc1c(CNn2cnnc2S)cccc1OC` , state its recorded pIC50.
Result: < 4.30
